Test system: SN12C renal
method_notes: NCI tumour cell line growth inhibition, 48 h
observation_type: TGI

Use the examples below as a reference point.
{"columns": ["compound", "test_value"],
 "data": [
  ["CNc1ccc2c(c1)[C@@]1(C)c3ccccc3[C@@H](C2)N1C", "33 µM"],
  ["CCOP(=O)(OCC)C(Nc1ccc(Br)cc1)c1cccc([N+](=O)[O-])c1 (stereo not drawn)", "37.8 µM"],
  ["CCOP(=O)(OCC)C(C)(CC)N/C(=N/C(NC(C)=O)(C(F)(F)F)C(F)(F)F)NC1=NC(C(F)(F)F)(C(F)(F)F)N=C(C(F)(F)F)O1 (stereo not drawn)", "> 100 µM"]
]}

TGI measured on Cc1ccc(C(CC(=O)c2ccccc2)C2C(=O)NC(=O)NC2=O)cc1 (stereo not drawn) = > 100 µM

For CCN(CC)/C(Sc1ccccc1)=C(\C(Cl)=C(Cl)Cl)[N+](=O)[O-] the compound record lists TGI as 37.8 µM

Please fill in: TGI reported for Cc1ccc(/C=C/c2nnc(N/N=C/c3ccc4c(c3)OCO4)[nH]c2=O)cc1 = 38.1 µM

compound O=C1C(N2CC2)=C(N2CC2)C(=O)C(N2CC2)=C1N1CC1 , TGI observed: 1.45 µM

So for CC1CC2OC(=O)C(C)C2CC2(C)C(OC3OC(CO)C(O)C(O)C3O)OCCC12 (stereo not drawn) , the logged TGI turned out to be > 100 µM

Entry CCC12CCCN(Cc3ccccc3)C1c1c(n(C)c3ccccc13)C(C(=O)OC)C2 (stereo not drawn) , TGI reported as > 239 µM

Reported TGI for COC(=O)C(C#CCCCCC#CC(NC(=O)OCc1ccccc1)(C(=O)OC)C(F)(F)F)(NC(=O)OCc1ccccc1)C(F)(F)F (stereo not drawn) was > 100 µM

GET /value?item= O=c1cc(-c2ccccc2F)[nH]c2ccc(N3CCCC3)cc12 &field=TGI returns > 100 µM

What the record says about COc1cc(CO)c(CC(=O)NCCCc2ccccc2)cc1OC : TGI is > 100 µM

Reported TGI of NCCSC(c1ccccc1)c1ccccc1 : > 100 µM

So for CCOC(=O)c1c(N)sc2c1C(C)(C(=O)OCC)CC2 (stereo not drawn) , the logged TGI turned out to be > 100 µM
